Target or system: L-lactate dehydrogenase (Plasmodium falciparum (isolate CDC / Honduras)) (UniProt Q27743)
Sequence (Q27743 whole entry, looked up): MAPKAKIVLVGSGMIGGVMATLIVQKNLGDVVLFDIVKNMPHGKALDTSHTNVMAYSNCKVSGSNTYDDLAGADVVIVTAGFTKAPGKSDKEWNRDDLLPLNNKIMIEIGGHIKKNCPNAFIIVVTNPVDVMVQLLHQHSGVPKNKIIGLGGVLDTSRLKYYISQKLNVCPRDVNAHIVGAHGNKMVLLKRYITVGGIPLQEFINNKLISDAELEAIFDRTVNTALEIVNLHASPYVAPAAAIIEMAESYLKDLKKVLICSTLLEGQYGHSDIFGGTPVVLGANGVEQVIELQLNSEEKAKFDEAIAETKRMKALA
Test name: PfLDH activity inhibition – cell lysate, 3D7 strain, counter-screen for P. falciparum growth inhibition project (AID 2304);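 note: 0% = vehicle and 100% = reference inhibitor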
Experimental conditions: P. falciparum 3D7 crude extract, LDH APAD/NBT absorbance; at 2 µM; active compounds read high
Below, each entry is listed alongside its reported inhibition.
Endpoint label: inhibition (%)

• CC(C)OC(=O)c1ccccc1S(N)(=O)=O = 1
• COc1ccc(OC)c2c1CCN(CCN1CCC(C(=O)Nc3ccc(C(=O)Nc4ccc(Cl)cc4)cc3)CC1)C2 = -2
• Cc1nn(C2CCS(=O)(=O)C2)c(C)c1C1Nc2ccccc2C(=O)N1Cc1ccc2c(c1)OCO2 (configuration not stated) = 2
• O=C(Nc1ccccc1)N(Cc1cccc(-c2cccc(CNCCc3ccccc3)c2)c1)C1CCN(Cc2ccccc2)CC1 = 1
• CC[C@H]1CN2CCc3cc(OC)c(OC)cc3[C@@H]2C[C@@H]1CC1=NCCc2c1[nH]c1ccc(OCc3ccccc3)cc21 = -2
• O=C(NC1CCCCN(Cc2ccccc2O)C1)c1ccc(Cl)c(Cl)c1 (configuration not stated) = -1
• CCCc1cc(OC)c(C[C@@H]2c3cc(O)c(Cl)cc3CCN2C)cc1OC = 8

----------
Test name: antimalarial activity against Dd2 strain (AID 2302);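 note: 0% = DMSO untreated growth and 100% = chloroquine plus artemisinin killed control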
Experimental conditions: P. falciparum Dd2 in RBCs, LDH growth readout, 72 h; at 2 µM; active compounds read high
Calls of active or inactive are those of the source.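 How the source made its calls: active means growth inhibition above 50% at the single 2 µM test dose, taken to imply half-maximal potency below 2 µM; inactive means the rest.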
Below, each entry is listed alongside its reported growth inhibition.
Endpoint label: growth inhibition

- Cc1ccc(-n2nc3ccc(NC(=O)c4ccc([N+](=O)[O-])o4)cc3n2)cc1C: 95% (active)
- Cn1cncc1C(=O)Nc1cccc(-c2ccc(-c3nc4ccc(F)cc4[nH]3)s2)c1: 27% (inactive)
- Cc1c(N)ccc2[nH]c(-c3ccc(N)cc3)nc12: 40% (inactive)
- O=C(/C=C/c1ccc(Cl)c(Cl)c1)NCCCCCN1CCC(NC(=S)Nc2ccc(Cl)cc2Cl)CC1: 47% (inactive)
- CCOc1c(CCNCCCCNCCc2ccc3ccccc3c2OCC)ccc2ccccc12: 87% (active)
- Clc1ccc(CNc2ccnc(NCc3ccc4c(c3)OCCCO4)n2)c(Cl)c1: 20% (inactive)
- O=c1cc(NCCCNCc2sc(Br)nc2Br)[nH]c2ccccc12: 44% (inactive)
- Cc1cc(NN=Cc2ccc(Cl)cc2)c2cccc(C)c2n1: 47% (inactive)

----------
Test name: HepG2 cytotoxicity, primary screen, cytotoxicity control for P. falciparum antimalarial project, cell-based, ATP luminescence (AID 2303);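 note: 0% = DMSO wells and 100% = digitonin-killed cells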
Experimental conditions: HepG2 viability, 24-48 h, at 10 µM
The source made the active and inactive calls.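 Rule for the calls: active = inhibition above 50%; inactive = the rest.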
Possible outcomes: t (active), f (inactive)

- COc1ccc(NC(=O)Nc2nc(-c3ccc(Cl)c(C)c3)cs2)cc1N1CCN(C)CC1: f
- Clc1cc(Cl)c2cc(CNCCCNc3ccc4ccccc4n3)[nH]c2c1: t
- CCOc1ccc2nc(N(CCCn3ccnc3)C(=O)C=Cc3cccs3)sc2c1: f
- Clc1ccc(OCc2ccccc2)c(-c2nc(-c3nc4ccc(Cl)cc4[nH]3)cs2)c1: f
- CN1CCC(N(C)C(=O)C=Cc2cn(-c3ccccc3)nc2-c2cc3ccccc3o2)CC1: f
- CCOC(=O)C1=C(C)N=c2sc(=Cc3cc(Cl)ccc3O)c(=O)n2C1c1ccc(OC)cc1 (stereo not drawn): f
- CCc1cn2c3c(cc(C(=O)N[C@@H](Cc4ccccc4)[C@H](O)CN[C@@H](C)CC)cc13)N(C)S(=O)(=O)CC2: f
- CN(Cc1cccc(O)c1)C1CCN(c2cc(NC(=O)c3ccc(F)cc3)ccn2)C1 (stereo not drawn): f
